Origin of values: patent US20110028318A1

Test system: Alopecurus myosuroides
Test: Pre-emergence herbicidal activity, ALOMY
Assay type: in vivo
Conditions: 80 g/ha, WP formulation, scored visually after approximately 3 weeks vs untreated controls (100% = plants have died)
For each record, write down the corresponding herbicidal activity in percent, ALOMY.
The reply should contain only the number, in %.

Q) Give the reported herbicidal activity in percent, ALOMY for this compound. CCC1CC(c2cccnc2S(=O)(=O)NC(=O)Nc2nc(Cl)cc(OC)n2)=NO1 (stereo not shown)
A) 80

Q) Return herbicidal activity in percent, ALOMY (reported value) for this compound: `COc1cc(OC)nc(NC(=O)NS(=O)(=O)c2ncccc2C2=NOC(C)(C)C2)n1`
A) 90

Q) Dear colleague, please send me the reported herbicidal activity in percent, ALOMY for COc1cc(OC)nc(NC(=O)NS(=O)(=O)c2ncccc2C2=NOC(C(C)C)C2)n1 (stereo not shown) when you can.
A) 80

Q) Output herbicidal activity in percent, ALOMY of `Cc1cc(C)nc(NC(=O)NS(=O)(=O)c2ncccc2C2=NOCC2)n1`
A) 80

* * *

Test: logp
Assay type: physicochemical
RECORDED METRIC: logP
Lab note: write the figure by itself, no unit.

Q) For `Clc1ncccc1C1=NOCC1` , write its logP.
A) 0.97

* * *

Would you mind telling me the reported herbicidal activity in percent, ALOMY of each entry?
System: Alopecurus myosuroides
Assay: Pre-emergence herbicidal activity, ALOMY
Assay type: in vivo
Conditions: 80 g/ha, WP formulation, scored visually after approximately 3 weeks vs untreated controls (100% = plants have died)
The reply should be a number in %, with the unit left off.

Q) Tell us which herbicidal activity in percent, ALOMY value is on record for CCC1CC(c2cccnc2S(=O)(=O)NC(=O)Nc2nc(OC)cc(OC)n2)=NO1 (stereo not shown)
A) 90

Q) Answer with the recorded herbicidal activity in percent, ALOMY for the compound listed here: CCC1CC(c2cccnc2S(=O)(=O)NC(=O)Nc2nc(C)cc(OC)n2)=NO1 (stereo not shown)
A) 80

Q) Return value of herbicidal activity in percent, ALOMY for input `COc1cc(SC)nc(NC(=O)NS(=O)(=O)c2ncccc2C2=NOCC2)n1` , no commentary.
A) 80

Q) Answer with reported herbicidal activity in percent, ALOMY of `COc1cc(OC)nc(NC(=O)NS(=O)(=O)c2ncccc2C2=NOCC2)n1`
A) 90
